From: patent US5736523A

Test system: MCF-7/ADR
Assay: In vitro antitumor activity, MCF-7/ADR (adriamycin resistant)
Assay type: cell-based
Details: MCF-7/ADR
pIC50: −log10 of the molar value.
Value Kind: pIC50

1. CC(=O)[C@H]1CC2=C(C(=O)c3ccccc3C2=O)[C@H](OC2C[C@H](NC(=O)C(F)(F)F)[C@H](O)[C@H](C)O2)O1 (stereo partly shown) [BCH1146]	6.72

---

Tested on: T47D (Ductal carcinoma of breast)
Experiment: In vitro cytotoxicity, microculture tetrazolium (MTT) assay, T47D
Assay type: cell-based, human
Settings: read-out: IC50
pIC50: −log10 of the molar value.
// pIC50 lookup, one value per entry
Value Kind: pIC50

1. CC(=O)C1CC2=C(C(=O)c3ccccc3C2=O)C(O[C@H]2C[C@H](O)[C@H](O)[C@H](C)O2)O1 (mixture of isomers) [BCH2117]	7.43
2. CCC1CC2=C(C(=O)c3ccccc3C2=O)C(OC2CC(OC(C)=O)C(OC(C)=O)C(C)O2)O1 (mixture of isomers) [BCH1607]	4.83
3. CC(=O)[C@@H]1CC2=C(C(=O)c3ccccc3C2=O)[C@@H](O[C@@H]2O[C@H](CO)[C@@H](O)[C@H](O)[C@H]2NC(=O)N(CCCl)N=O)O1 [BCH2038]	5.70
4. C=CC[C@H]1CC2=C(C(=O)c3ccccc3C2=O)[C@@H](OC2C[C@H](NC(=O)C(F)(F)F)[C@H](O)[C@H](C)O2)O1 (stereo partly drawn) [BCH1649]	6.42
5. CC(=O)[C@@H]1CC2=C(C(=O)c3ccccc3C2=O)[C@H](OC2CCC(NC(=O)N(CCCl)N=O)CC2)O1 (mixture of isomers) [BCH2114]	6.18
6. CC(=O)[C@H]1CC2=C(C(=O)c3ccccc3C2=O)[C@H](O[C@H]2C[C@H](NC(=O)C(F)(F)F)[C@H](OC(=O)CBr)[C@H](C)O2)O1 [BCH2105]	7.72

---

System: MAT-B
Assay: In vitro antitumor activity, MAT-B
Type: cell-based
Protocol: The microculture tetrazolium assay was used to test in vitro cytotoxicity. This assay is described in Plumb, J. A. et al., 1989 Cancer Research 49, 4435-4440, which is herein incorporated by reference. The cytotoxicity of compounds towards tumor cells is measured in vitro using the assay. […]
Value Kind: IC50

1) CC(=O)[C@H]1CC2=C(C(=O)c3ccccc3C2=O)[C@H](OC2C[C@H](NC(=O)C(F)(F)F)[C@H](O)[C@H](C)O2)O1 (stereo partly shown)	0.46 µM

---

Test system: T47D (Ductal carcinoma of breast)
Assay: In vitro cytotoxicity, microculture tetrazolium (MTT) assay, T47D
Type: cell-based, human
Conditions: Homo sapiens, read-out: IC50
pIC50: −log10 of the molar value.
Value Kind: pIC50

1) CC(NC(=O)C(F)(F)F)[C@H]1CC2=C(C(=O)c3ccccc3C2=O)[C@H](O[C@H]2C[C@H](O)[C@H](O)[C@H](C)O2)O1 (stereo partly drawn) [BCH2018]	5.07
2) COC1OC(C(=O)NCCCn2ccnc2)=CC2=C1C(=O)c1ccccc1C2=O (stereo not drawn) [BCH2157]	6.63
3) CC(=NO)[C@@H]1CC2=C(C(=O)c3ccccc3C2=O)[C@@H](O[C@H]2C[C@H](NC(=O)C(F)(F)F)[C@H](O)[C@H](C)O2)O1 [BCH2115]	5.28
4) COC1OC(C(=O)NCCN2CCOCC2)=CC2=C1C(=O)c1ccccc1C2=O (stereo not drawn) [BCH2171]	6.40
5) COC1OC(C(=O)NCCCN2CCCC2=O)=CC2=C1C(=O)c1ccccc1C2=O (stereo not drawn) [BCH2166]	6.63
6) C=CC[C@@H]1CC2=C(C(=O)c3ccccc3C2=O)[C@@H](O[C@H]2C[C@H](NC(=O)C(F)(F)F)[C@H](O)[C@H](C)O2)O1 (mixture of isomers) [BCH2031]	4.80
